This collection of values is drawn from ChEMBL document CHEMBL4680314.

molecular target: Mitogen-activated protein kinase 10 (Homo sapiens, UniProt P53779); assay: Inhibition of JNK3 (unknown origin) by ATP competitive based analysis
Sequence (P53779 whole entry): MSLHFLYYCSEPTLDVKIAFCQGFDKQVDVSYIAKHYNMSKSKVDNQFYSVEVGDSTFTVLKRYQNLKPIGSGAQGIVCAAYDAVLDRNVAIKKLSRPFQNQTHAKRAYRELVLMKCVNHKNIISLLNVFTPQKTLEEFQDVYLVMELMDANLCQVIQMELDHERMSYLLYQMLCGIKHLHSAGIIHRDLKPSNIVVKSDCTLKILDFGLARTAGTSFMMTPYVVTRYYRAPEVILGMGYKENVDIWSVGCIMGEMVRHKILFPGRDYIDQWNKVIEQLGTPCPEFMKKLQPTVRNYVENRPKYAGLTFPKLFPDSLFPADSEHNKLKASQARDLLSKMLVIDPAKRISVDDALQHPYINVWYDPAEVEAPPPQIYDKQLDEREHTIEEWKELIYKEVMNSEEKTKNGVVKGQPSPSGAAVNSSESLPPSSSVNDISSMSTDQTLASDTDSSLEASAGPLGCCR
pIC50: −log10 of the molar value.

| structureString | pIC50 |
| --- | --- |
| NC(=O)c1sc(-c2ccnc(NC(=O)C3CC3)c2)nc1OCCCC1CCN(Cc2ccc(F)cc2)CC1 | < 6.52 |

----------
assay: Clearance in Sprague-Dawley rat at 10 mg/kg, po measured upto 24 hrs by LC-MS/MS analysis; format: ADME, organism-based; details: in vivo

| structureString | unitText | CL/F |
| --- | --- | --- |
| NC(=O)c1sc(-c2ccnc(NC(=O)C3CC3)c2)nc1OCC1CCN(Cc2ccccc2)CC1 | mL/min/kg | 267 |
| NC(=O)c1sc(-c2ccnc(NC(=O)C3CC3)c2)nc1OCCCC1CCN(Cc2ccc(F)cc2)CC1 | mL/min/kg | 112 |
| NC(=O)c1sc(-c2ccnc(NC(=O)C3CC3)c2)nc1OCCCC1CCN(Cc2ccccc2)CC1 | mL/min/kg | 296 |

----------
Entries with their measured IC50, system Cholinesterase (Homo sapiens):
property: IC50 (µM)

| structureString | unitText | obsValue |
| --- | --- | --- |
| CNC(=O)c1sc(-c2ccnc(NC(=O)C3CC3)c2)nc1OCC1CCN(Cc2ccc(Br)cc2)CC1 | µM | 68 |
| CNC(=O)c1sc(-c2ccnc(NC(=O)C3CC3)c2)nc1OCC1CCN(Cc2ccc(Cl)cc2)CC1 | µM | 297 |
| NC(=O)c1sc(-c2ccnc(NC(=O)C3CC3)c2)nc1OCCC1CCN(Cc2cccc(F)c2)CC1 | µM | 295 |
| NC(=O)c1sc(-c2ccnc(NC(=O)C3CC3)c2)nc1OCCCC1CCN(Cc2ccccc2)CC1 | µM | 20.6 |
| CNC(=O)c1sc(-c2ccnc(NC(=O)C3CC3)c2)nc1OCC1CCN(Cc2ccccc2F)CC1 | µM | 11 |
| NC(=O)c1sc(-c2ccnc(NC(=O)C3CC3)c2)nc1OCCCC1CCN(Cc2ccc(F)cc2)CC1 | µM | 3.41 |

----------
biological target: UniProtKB P22303; experiment: Inhibition of human recombinant AChE expressed in HEK293 cells using acetylthiocholine iodide as substrate incubated for 10 mins by Ellman's method
Sequence (P22303 whole entry): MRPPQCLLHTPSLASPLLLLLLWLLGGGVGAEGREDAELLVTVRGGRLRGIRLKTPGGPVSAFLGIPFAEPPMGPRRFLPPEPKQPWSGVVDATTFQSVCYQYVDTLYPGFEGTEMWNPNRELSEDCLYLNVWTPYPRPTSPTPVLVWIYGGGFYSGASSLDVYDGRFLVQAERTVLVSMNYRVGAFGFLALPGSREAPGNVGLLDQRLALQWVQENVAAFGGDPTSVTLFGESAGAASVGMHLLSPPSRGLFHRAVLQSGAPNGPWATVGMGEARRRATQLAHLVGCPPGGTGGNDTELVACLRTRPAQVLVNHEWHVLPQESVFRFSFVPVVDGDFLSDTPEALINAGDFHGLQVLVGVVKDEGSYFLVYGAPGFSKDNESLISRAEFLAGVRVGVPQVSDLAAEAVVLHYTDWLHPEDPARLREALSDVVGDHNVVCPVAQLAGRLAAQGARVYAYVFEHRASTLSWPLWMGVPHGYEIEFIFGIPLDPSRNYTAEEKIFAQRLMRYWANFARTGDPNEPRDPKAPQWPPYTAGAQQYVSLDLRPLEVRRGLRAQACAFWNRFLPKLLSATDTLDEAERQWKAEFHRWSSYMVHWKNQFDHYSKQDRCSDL
pIC50: −log10 of the molar value.
property: pIC50

| structureString | property | boundType | obsValue |
| --- | --- | --- | --- |
| CNC(=O)c1sc(-c2ccnc(NC(=O)C3CC3)c2)nc1OCC1CCN(Cc2ccc(F)c(F)c2)CC1 | pIC50 | = | 4.10 |
| NC(=O)c1sc(-c2ccnc(NC(=O)C3CC3)c2)nc1OCC1CCN(Cc2ccccc2)CC1 | pIC50 | = | 5.82 |
| NC(=O)c1sc(-c2ccnc(NC(=O)C3CC3)c2)nc1OCCC1CCN(Cc2c(F)cccc2F)CC1 | pIC50 | = | 4.71 |
| NC(=O)c1sc(-c2ccnc(NC(=O)C3CC3)c2)nc1OCCCC1CCN(Cc2cccc(F)c2)CC1 | pIC50 | = | 5.52 |
| NC(=O)c1sc(-c2ccnc(NC(=O)C3CC3)c2)nc1O | pIC50 | < | 3.00 |

----------
target: Cyclin-dependent kinase 1 (Homo sapiens)
Sequence (P06493 whole entry): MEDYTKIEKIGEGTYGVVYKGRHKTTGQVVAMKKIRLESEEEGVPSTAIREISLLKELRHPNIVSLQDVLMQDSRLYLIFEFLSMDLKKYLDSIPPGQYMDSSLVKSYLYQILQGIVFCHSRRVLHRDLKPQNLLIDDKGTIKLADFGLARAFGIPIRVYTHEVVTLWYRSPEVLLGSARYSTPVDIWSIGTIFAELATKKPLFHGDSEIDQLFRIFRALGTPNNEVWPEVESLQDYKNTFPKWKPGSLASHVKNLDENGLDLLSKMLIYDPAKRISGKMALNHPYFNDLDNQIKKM
property: IC50

| structureString | property | obsValue |
| --- | --- | --- |
| NC(=O)c1sc(-c2ccnc(NC(=O)C3CC3)c2)nc1OCCCC1CCN(Cc2ccc(F)cc2)CC1 | IC50 | > 300 nM |

----------
target: Cholinesterase (Homo sapiens, UniProt P06276)
Sequence (P06276 whole entry): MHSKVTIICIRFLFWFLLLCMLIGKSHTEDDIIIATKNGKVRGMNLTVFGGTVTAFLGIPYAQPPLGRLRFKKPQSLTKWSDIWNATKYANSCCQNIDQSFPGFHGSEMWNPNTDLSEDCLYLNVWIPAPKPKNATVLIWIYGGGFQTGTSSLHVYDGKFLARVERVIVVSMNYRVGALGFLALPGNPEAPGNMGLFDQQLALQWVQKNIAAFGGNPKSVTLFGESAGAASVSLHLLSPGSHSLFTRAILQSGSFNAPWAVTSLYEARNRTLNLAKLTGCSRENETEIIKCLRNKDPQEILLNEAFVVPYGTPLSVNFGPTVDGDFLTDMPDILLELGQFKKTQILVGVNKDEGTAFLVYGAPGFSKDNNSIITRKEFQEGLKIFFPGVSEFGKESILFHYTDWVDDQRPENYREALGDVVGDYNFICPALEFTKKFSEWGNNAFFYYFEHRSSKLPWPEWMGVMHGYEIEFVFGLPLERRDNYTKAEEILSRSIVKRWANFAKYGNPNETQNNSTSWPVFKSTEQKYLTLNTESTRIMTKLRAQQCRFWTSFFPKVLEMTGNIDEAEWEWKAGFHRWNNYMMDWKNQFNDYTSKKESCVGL
pIC50: −log10 of the molar value.
Rule: pIC50 of 5 or more gives condition met; anything lower gives condition not met.

| structureString | classification |
| --- | --- |
| NC(=O)c1sc(-c2ccnc(NC(=O)C3CC3)c2)nc1OCCC1CCN(Cc2c(F)cccc2F)CC1 | condition met |
| CNC(=O)c1sc(-c2ccnc(NC(=O)C3CC3)c2)nc1OC1CCN(Cc2ccccc2)CC1 | condition not met |
| CNC(=O)c1sc(-c2ccnc(NC(=O)C3CC3)c2)nc1OCC1CCN(Cc2ccc(F)c(F)c2)CC1 | condition not met |
| NC(=O)c1sc(-c2ccnc(NC(=O)C3CC3)c2)nc1OCCCC1CCN(Cc2cccc(F)c2)CC1 | condition met |
| NC(=O)c1sc(-c2ccnc(NC(=O)C3CC3)c2)nc1O | condition not met |
| NC(=O)c1sc(-c2ccnc(NC(=O)C3CC3)c2)nc1OCCC1CCN(Cc2ccc(F)cc2)CC1 | condition not met |
| NC(=O)c1sc(-c2ccnc(NC(=O)C3CC3)c2)nc1OCCC1CCN(Cc2ccccc2F)CC1 | condition not met |
| NC(=O)c1sc(-c2ccnc(NC(=O)C3CC3)c2)nc1OCCC1CCN(Cc2ccccc2)CC1 | condition not met |

----------
molecular target: Dual specificity tyrosine-phosphorylation-regulated kinase 1A (Homo sapiens, UniProt Q13627)
pIC50: −log10 of the molar value.
property: pIC50

| structureString | property | obsValue |
| --- | --- | --- |
| NC(=O)c1sc(-c2ccnc(NC(=O)C3CC3)c2)nc1OCCCC1CCN(Cc2ccc(F)cc2)CC1 | pIC50 | 8.09 |

----------
molecular target: Cyclin-dependent kinase 2 (Homo sapiens)

| structureString | IC50 |
| --- | --- |
| NC(=O)c1sc(-c2ccnc(NC(=O)C3CC3)c2)nc1OCCCC1CCN(Cc2ccc(F)cc2)CC1 | > 300 nM |

----------
Reported MRT last at 24 h is given for each of the following molecules.
test: MRT (0 to t) in Sprague-Dawley rat at 5 mg/kg, iv measured upto 24 hrs by LC-MS/MS analysis; assay type: ADME, organism-based; conditions: in vivo

| structureString | MRT last at 24 h [h] |
| --- | --- |
| NC(=O)c1sc(-c2ccnc(NC(=O)C3CC3)c2)nc1OCCCC1CCN(Cc2ccc(F)cc2)CC1 | 3.3 |
| NC(=O)c1sc(-c2ccnc(NC(=O)C3CC3)c2)nc1OCCCC1CCN(Cc2ccccc2)CC1 | 5.1 |

----------
assay: Oral bioavailability in Sprague-Dawley rat at 10 mg/kg measured upto 24 hrs by LC-MS/MS analysis; assay type: ADME, organism-based; conditions: in vivo
property: bioavailability (%)

| structureString | obsValue |
| --- | --- |
| NC(=O)c1sc(-c2ccnc(NC(=O)C3CC3)c2)nc1OCCCC1CCN(Cc2ccccc2)CC1 | 15.1 |
| NC(=O)c1sc(-c2ccnc(NC(=O)C3CC3)c2)nc1OCCCC1CCN(Cc2ccc(F)cc2)CC1 | 30.3 |
| NC(=O)c1sc(-c2ccnc(NC(=O)C3CC3)c2)nc1OCC1CCN(Cc2ccccc2)CC1 | 40.7 |

----------
molecular target: UniProt P06276; test: Inhibition of human BChE using butyrylthiocholineiodide as substrate incubated for 10 mins by Ellman's method

| structureString | studyTarget | IC50 [µM] |
| --- | --- | --- |
| CNC(=O)c1sc(-c2ccnc(NC(=O)C3CC3)c2)nc1OCC1CCN(Cc2ccc(Cl)c(Cl)c2)CC1 | UniProt P06276 | 65 |
| CNC(=O)c1sc(-c2ccnc(NC(=O)C3CC3)c2)nc1OCC1CCN(Cc2cccc([N+](=O)[O-])c2)CC1 | UniProt P06276 | 9 |
| CNC(=O)c1sc(-c2ccnc(NC(=O)C3CC3)c2)nc1OCC1CCN(Cc2ccccc2)CC1 | UniProt P06276 | 14 |
| NC(=O)c1sc(-c2ccnc(NC(=O)C3CC3)c2)nc1OCCC1CCN(Cc2ccccn2)CC1 | UniProt P06276 | 86.1 |
| NC(=O)c1sc(-c2ccnc(NC(=O)C3CC3)c2)nc1OCCCC1CCN(Cc2ccccc2F)CC1 | UniProt P06276 | 4.2 |
| CNC(=O)c1sc(-c2ccnc(NC(=O)C3CC3)c2)nc1OCC1CCN(Cc2cccc(Br)c2)CC1 | UniProt P06276 | 15 |
| NC(=O)c1sc(-c2ccnc(NC(=O)C3CC3)c2)nc1OCCC1CCN(Cc2ccccc2Cl)CC1 | UniProt P06276 | 301 |
| NC(=O)c1sc(-c2ccnc(NC(=O)C3CC3)c2)nc1OCCC1CCN(Cc2ccc(F)c(F)c2)CC1 | UniProt P06276 | 7.2 |

----------
test: in vitro; conditions: PAMPA
Description: Effective permeability of compound in PBS/EtOH buffer (7:3) at 25 ug/ml incubated for 18 hrs by PAMPA-BBB assay
Parameter Papp at 18 h, 25 ug/ml: see the listing below.

| molecule | Papp at 18 h, 25 ug/ml, nm/s |
| --- | --- |
| NC(=O)c1sc(-c2ccnc(NC(=O)C3CC3)c2)nc1OCCC1CCN(Cc2c(F)cccc2F)CC1 | 68 |
| NC(=O)c1sc(-c2ccnc(NC(=O)C3CC3)c2)nc1OCCCC1CCN(Cc2ccc(F)cc2)CC1 | 84 |
| NC(=O)c1sc(-c2ccnc(NC(=O)C3CC3)c2)nc1OCCC1CCN(Cc2ccccc2Cl)CC1 | 68 |
| NC(=O)c1sc(-c2ccnc(NC(=O)C3CC3)c2)nc1OCCCC1CCN(Cc2ccccc2)CC1 | 109 |
| NC(=O)c1sc(-c2ccnc(NC(=O)C3CC3)c2)nc1OCC1CCN(Cc2ccccc2)CC1 | 64 |
| NC(=O)c1sc(-c2ccnc(NC(=O)C3CC3)c2)nc1OCCC1CCN(Cc2ccc(F)cc2)CC1 | 82 |
| NC(=O)c1sc(-c2ccnc(NC(=O)C3CC3)c2)nc1OCCCC1CCN(Cc2cccc(F)c2)CC1 | 86 |
| NC(=O)c1sc(-c2ccnc(NC(=O)C3CC3)c2)nc1OCCC1CCN(Cc2ccccc2)CC1 | 88 |
| CCn1cc(C(=O)O)c(=O)c2cc(F)c(N3CCNC(C)C3)c(F)c21 (centres undefined) | 9 |
